# System: HEK293
# Assay explanation: cells
# Assay type: functional, Homo sapiens, ATCC CRL1573
# Particulars: Homo sapiens, ATCC CRL1573, HEK293; ASSAY_TEST Inhibition of Cell Viability; detection method Resazurin; Fluorescence (ex560/em590); MEDIA DMEM with 10% FBS; plate type 384well; TC; CORNING #3712; time 18 hr; read-out: CC50
Binary call on CC50 with cut-off 5 µg/mL: strictly below means Yes, and equality or higher means No.

Check out these entries, answers already filled in.
>  <Test smiles>
CSc1ccc(/C=C/c2ccc3cc(C(=O)Nc4cc(C(=O)Nc5cc(C(=O)NCCN6CCOCC6)n(C)c5)n(C)c4)ccc3n2)cc1.O=C(O)C(F)(F)F

>  <Classification>
No

$$$$
>  <Test smiles>
Cn1cc(NC(=O)c2cc(NC(=O)c3cc4ccccc4cn3)cn2C)cc1C(=O)NCCN1CCOCC1.O=C(O)C(F)(F)F

>  <Classification>
No

$$$$

**Q:** Hi there! Is CC50 for `CC(=N)Nc1cc(C(=O)Nc2cc(C(=O)Nc3cc(C(=O)NCCCN(C)C)n(C)c3)n(C)c2)n(C)c1.O=C(O)C(F)(F)F.O=C(O)C(F)(F)F` below 5 µg/mL, do you know?
**A:** No

**Q:** Record `CC(=O)Nc1cc(C(=O)Nc2cc(C(=O)Nc3nc(C(=O)NCCCN(C)C)c(CCC(C)C)s3)n(C)c2)n(C)c1` : is its CC50 strictly below 5 µg/mL?
**A:** No
